test system: T-47D breast; test: NCI-60 one-dose screen, 48 h (100 = growth as untreated, 0 = no growth, -100 = all killed); settings: 10 µM unless noted
About 83,000 compounds went through this panel and 20% of them were active in at least one assay; those are over-represented in the sample as a whole.
Classification field: enter satisfied for growth values not below 30%, not satisfied for values below it.

• CS(=O)(=O)Nc1cc(-c2ccc3ncc(C#N)c(NCc4cccc(F)c4)c3c2)cnc1Cl = not satisfied
• Cc1ccc(C(=O)NN2C(=O)/C(=C/C=C/c3ccco3)SC2=S)cc1 = satisfied
• CCCCc1nc(/C=N/Nc2nc(Nc3ccccc3)nc(Nc3ccc(S(N)(=O)=O)cc3)n2)c(Cl)[nH]1 = not satisfied
• NS(=O)(=O)c1ccc(Nc2nc(SCC(=O)c3ccc(Cl)cc3)nc3c2CCCC3)cc1 = not satisfied
• COc1cc(OC)c(S(N)(=O)=O)cc1C(=O)/C=C/c1ccc(Cl)cc1 = not satisfied
• CC/C(=C/c1cc(OC)ccc1O)c1ccc2cc(OC)ccc2[o+]1 = satisfied
• COc1cc(OC)c(S(N)(=O)=O)cc1C(C)=O = satisfied
• COc1ccccc1NCc1cccn1Cc1ccc(F)cc1 = satisfied
• CC(c1ccccc1)N1CSc2nc3ncncc3n2C1 (stereo not given) = satisfied
• C#Cc1ccc(C(=O)NCc2ccc(/C=C/C(=O)c3nccn3C)cc2)cc1 = satisfied
